Reference for the values: patent US10899738B2

experiment: Cell growth inhibition, CellTiter-Glo Luminescent Cell Viability Assay; assay type: cell-based; conditions: MOLM-13, 96 h, read-out: Cell Growth Inhibition IC50 (μM) MOLM13, MOLM13 cells, 4 days, CellTiter-Glo
Task for the reader: assign each of the following molecules its reported IC50.
One number for each entry, in µM.

Answered examples (3):
*Q* For the molecule CCN1Cc2ccccc2C(C2CCN(CC3CN(c4ccc(S(=O)(=O)c5cnn(C)c5)cc4)C3)CC2)([C@H]2CCC[C@@H]2NC(=O)NC)C1 (mixture of isomers) , report IC50.
*A* 0.71

*Q* For the molecule CNC(=O)O[C@H]1CCC[C@@H]1C(C#N)(c1ccccc1)C1CCN(CC2CN(c3ccc(S(=O)(=O)c4cnn(C)c4)cc3)C2)CC1 (mixture of isomers) , report IC50.
*A* 0.54

*Q* For the molecule CC(=O)O[C@H]1CCC[C@@H]1C1(C2CCN(CC3CN(c4ccc(S(=O)(=O)c5ccnc(C)c5)cc4)C3)CC2)CN(C)Cc2ccccc21 (mixture of isomers) , report IC50.
*A* 0.399

For each of the molecules below, note its IC50.
1. CCc1nccn1CC(c1ccccc1)(C1CCN(CC2CN(c3ccc(C#N)cc3)C2)CC1)[C@@H]1CCC[C@H]1OC(=O)NC (mixture of isomers)
2. CC(=O)O[C@H]1CCC[C@@H]1C(C#N)(c1ccccc1)C1CCN(CC2CN(c3ccc(S(=O)(=O)c4ccncc4)cc3)C2)CC1 (mixture of isomers)
3. CN(C)C(=O)N[C@H]1CCC[C@@H]1C(C#N)(c1ccccc1)C1CCN(CC2CN(c3ccc(S(=O)(=O)c4ccncc4)cc3)C2)CC1 (mixture of isomers)
4. COC(=O)N[C@H]1CCC[C@@H]1C(C#N)(c1ccccc1)C1CCN(CC2CN(c3ccc(S(=O)(=O)c4ccccc4)cc3)C2)CC1 (mixture of isomers)

*A*
1.6
0.783
0.41
0.44

For each of the molecules below, note its IC50.
1. CNC(=O)O[C@H]1CCC[C@@H]1C(C#N)(c1ccccc1)C1CCN(CC2CN(c3ccc(S(=O)(=O)c4ccncc4)cc3)C2)CC1 (mixture of isomers)
2. CC(=O)N[C@H]1CCC[C@@H]1C1(C2CCN(CC3CN(c4ccc(S(=O)(=O)c5cnn(C)c5)cc4)C3)CC2)CNCc2ccccc21 (mixture of isomers)
3. CNC(=O)N[C@H]1CCC[C@@H]1C(CN)(c1ccccc1)C1CCN(CC2CN(c3ccc(S(=O)(=O)c4ccccc4)cc3)C2)CC1 (mixture of isomers)
4. CNC(=O)N[C@@H]1CCC[C@H]1C1(C2CCN(CC3CN(c4ccc(S(=O)(=O)c5ccncc5)cc4)C3)CC2)CN(C)Cc2ccccc21 (mixture of isomers)
5. CNC(=O)O[C@H]1CCC[C@@H]1C(Cn1cccc1)(c1ccccc1)C1CCN(CC2CN(c3ccc(S(=O)(=O)c4ccccc4)cc3)C2)CC1 (mixture of isomers)
6. COC(=O)N[C@H]1CCC[C@@H]1C(C#N)(c1ccccc1)C1CCN(CC2CN(c3ccc(S(=O)(=O)c4ccc(C(N)=O)cc4)cc3)C2)CC1 (mixture of isomers)
7. N#Cc1ccc(OCCCN2CCC(C3(C4CCCC4)CNCc4ccccc43)CC2)cc1 (stereo not shown)
8. CCN1Cc2ccccc2C(C2CCN(CC3CN(c4ccc(S(=O)(=O)C5CC5)cc4)C3)CC2)([C@H]2CCC[C@@H]2NC(=O)NC)C1 (mixture of isomers)

*A*
1. 0.415
2. 5.69
3. 1.25
4. 2.12
5. 1.46
6. 1.63
7. 7.3
8. 0.32

For each of the molecules below, note its IC50.
1. CNC(=O)O[C@H]1CCC[C@@H]1[C@](C#N)(c1ccccc1)C1CCN(CC2CN(c3ccc(S(=O)(=O)c4ccncc4)cc3)C2)CC1 (mixture of isomers)
2. CC(=O)N[C@H]1CCC[C@@H]1C(C#N)(c1ccccc1)C1CCN(CC2CN(c3ccc(S(=O)(=O)c4ccncc4)cc3)C2)CC1 (mixture of isomers)

*A*
1: 0.25; 2: 1.4

For each of the molecules below, note its IC50.
1. COC(=O)N[C@H]1CCC[C@@H]1C(C#N)(c1ccccc1)C1CCN(CC2CN(c3ccc(S(=O)(=O)C4CC5CCC4C5)cc3)C2)CC1 (mixture of isomers)
2. CC(=O)O[C@H]1CCC[C@@H]1C1(C2CCN(CC3CN(c4ccc(S(=O)(=O)C5CC5)cc4)C3)CC2)CN(C)Cc2ccc(F)cc21 (mixture of isomers)
3. COC(=O)N[C@H]1CCC[C@@H]1C(C#N)(c1ccccc1)C1CCN(CC2CN(c3ccc(S(=O)(=O)C4CC4)cc3)C2)CC1 (mixture of isomers)

*A*
1: 1.46; 2: 1.8; 3: 2.77
